Listing of recorded viability, T/C by entry.
# Tested on: 422866-222-R5-J1-PDC complex spheroids viability;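 further: spheroids exposed to compounds for 7 days; 100% = DMSO vehicle control viability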
# Assay Protocol: Anticancer human tumor 422866-222-R5-J1-PDC patient-derived pancreatic adenocarcinoma cell line growth inhibition [RAS]
# Settings: second compound 1 µM; first compound 0.316 µM; hits give low values
# From the text: RAS pathway inhibitors in Combinations in Complex Spheroids A high-throughput screen of multi-cell type tumor spheroids was designed to identify active combinations of RAS pathway inhibitors and targeted small molecules. Complex spheroids include a stromal component modeled by human endothelial cells (HUVEC) and fibroblasts modeled by human mesenchymal stem cells (MSCs). […] Compounds. […] If the clinical Cmax for an agent had not been determined, the highest concentration tested was 10 microM. […]

Molecule: CC(C)NCC(C(=O)N1CCN(c2ncnc3c2C(C)CC3O)CC1)c1ccc(Cl)cc1 (stereo not given) + C#Cc1c(F)ccc2cc(O)cc(-c3ncc4c(N5CC6CCC(C5)N6)nc(OCC56CCCN5CC(F)C6)nc4c3F)c12
viability, T/C / %: 38.9
--
Molecule: CC(Nc1ccc2c(c1)OCCn1cc(N3C(=O)OCC3C(F)F)nc1-2)C(N)=O (stereo not given) + C#Cc1c(F)ccc2cc(O)cc(-c3ncc4c(N5CC6CCC(C5)N6)nc(OCC56CCCN5CC(F)C6)nc4c3F)c12
viability, T/C / %: 22.5
--
Molecule: CCC(CC)c1cc(NC2CCC(N)C2)n2nccc2n1 (stereo not given) + C#Cc1c(F)ccc2cc(O)cc(-c3ncc4c(N5CC6CCC(C5)N6)nc(OCC56CCCN5CC(F)C6)nc4c3F)c12
viability, T/C / %: 47.8
--
Molecule: CC(=O)OC12COC1CC(O)C1(C)C(=O)C(O)C3=C(C)C(OC(=O)C(O)C(NC(=O)OC(C)(C)C)c4ccccc4)CC(O)(C(OC(=O)c4ccccc4)C21)C3(C)C (stereo not given) + C#Cc1c(F)ccc2cc(O)cc(-c3ncc4c(N5CC6CCC(C5)N6)nc(OCC56CCCN5CC(F)C6)nc4c3F)c12
viability, T/C / %: 37.5
--
Molecule: CC1(O)CCCC1n1c(=O)c(C(F)F)cc2cnc(NC3CCN(S(C)(=O)=O)CC3)nc21 (stereo not given) + C=CC(=O)N1CCN(c2nc(OCC3CCCN3C)nc3c(F)c(-c4nc(N)cc(C)c4C(F)(F)F)c(Cl)cc23)C(C)C1
viability, T/C / %: 23.9
